Overview of recorded period change for various molecules
experiment: compounds altering circadian rhythm period length – cell-based, LOPAC library, luminescence reporter (AID 2774); details: circadian reporter cells, at 7 µM, actives lie on both sides;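 also: values are relative to mean of DMSO wells on each plate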
Active and inactive are the calls of the source. No rule for the calls is given here.

Worked examples follow.
>>> result("NC(=O)c1ccccc1")
"-0.185 h (inactive)"
>>> result("NC/C=C\\C(=O)O")
"0.03 h (inactive)"
>>> result("CC[C@@H](C)[C@H]1O[C@]2(CC[C@@H]1C)C[C@@H]1C[C@@H](C/C=C(\\C)[C@@H](O[C@H]3C[C@H](OC)[C@@H](O[C@H]4C[C@H](OC)[C@@H](O)[C@H](C)O4)[C@H](C)O3)[C@@H](C)/C=C/C=C3\\CO[C@@H]4[C@H](O)C(C)=C[C@@H](C(=O)O1)[C@]34O)O2")
"0.095 h (inactive)"
>>> result("COc1ccc(NC(=O)/C=C/c2ccc(Cl)cc2)cc1")
"-0.055 h (inactive)"
>>> result("COc1cc(=O)n(C)c2c(OCC(O)C(C)(C)O)cccc12 (stereo not given)")
"-0.165 h (inactive)"

(Q) Find the recorded period change belonging to CC1CN(S(=O)(=O)c2cccc3cnccc23)CCN1 (stereo not given) and report it.
(A) 0.475 h (inactive)

(Q) Find the recorded period change belonging to N[C@@H](CCCC(=O)O)C(=O)O and report it.
(A) 0.11 h (inactive)

(Q) Find the recorded period change belonging to C=CC[C@H](N)C(=O)O and report it.
(A) -0.185 h (inactive)

(Q) Find the recorded period change belonging to Cc1cc(NC(=O)Nc2ccc3c(ccn3C)c2)sn1 and report it.
(A) -0.055 h (inactive)

(Q) Find the recorded period change belonging to Cc1cc(N)c2ccccc2[n+]1CCCCCCCCCCCCCC[n+]1c(C)cc(N)c2ccccc21 and report it.
(A) 0.11 h (inactive)

* * *

test: MELAS cybrid and Rieske KO viability enhancers – cell-based, MELAS cybrids, Rieske KO mouse fibroblasts, CellTiter-Glo, primary screen (AID 1508586); settings: Rieske KO mouse fibroblast survival, low glucose, CellTiter-Glo 72 h;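 also: z relative to plate mean and SD of compound and empty wells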
property: z-score

Worked examples follow.
>>> result("CC[C@]1(O)C[C@H]2CN(CCc3c([nH]c4ccccc34)[C@@](C(=O)OC)(c3cc4c(cc3OC)N(C)[C@H]3[C@@](O)(C(N)=O)[C@H](O)[C@]5(CC)C=CCN6CC[C@]43[C@@H]65)C2)C1")
2.09
>>> result("CCCC(=O)Nc1cccc(NC(=O)c2ccccc2Br)c1")
-0.0371
>>> result("COc1cccc2c(=O)n(C(C)Cn3cccn3)cnc12 (configuration not stated)")
-1.21
>>> result("CCOc1ccc2ccccc2c1C(=O)NC1C(=O)N2C(C(=O)O)C(C)(C)S[C@H]12 (some centres not stated)")
-0.179
>>> result("CCOC(=O)Nc1cc(-c2ccc(C)c(NS(C)(=O)=O)c2)nn2c(C)nnc12")
-4.44
>>> result("CC(C)C[C@H](NC(=O)[C@@H](Cc1c[nH]c2ccccc12)NC(=O)[C@H](Cc1ccc(O)cc1)NC(=O)[C@H](CO)NC(=O)[C@H](Cc1c[nH]c2ccccc12)NC(=O)[C@H](Cc1cnc[nH]1)NC(=O)[C@@H]1CCC(=O)N1)C(=O)N[C@@H](CCCN=C(N)N)C(=O)N1CCC[C@H]1C(=O)NCC(N)=O")
-0.118

(Q) Find the recorded z-score belonging to Cc1nc(CCNC(=O)Nc2nnc(-c3cccs3)s2)sc1C and report it.
(A) -0.248
